Tested on: MS2 coat protein
Protocol: apparent KD of MS2 coat protein; designed switch direction (-1 OFF switch, 1 ON switch): 1; higher = weaker reporter binding
Condition Info: Eterna round: R95; input ligand: none
Binning of apparent KD of MS2 coat protein into classes: bottom bin (below 90 nM), middle bin (90 nM to below 500 nM), top bin (500 nM or more)

// below: answered sequences
GGAGCCAGCACCGAGGAUAUUCAUAUUAAAACAUGAGGAUCACCCAUGUAGGCCAGAAGGCCUUGGGAGAAGGCGGACUGGCUCG [Xeonanis - 11] (puzzle: Same State 2) = top bin
AAGGUGCAGGUACAGGAUAUGUUGCUCGUAACAUGAGGAUCACCCAUGUACCUAUGAGAUUAAAUGCAGAAGGGUGCACACCAAA [Mat - Same State 2 - Mod of UCT - D91] (puzzle: Same State 2) = middle bin
AGUCCAGCCUGAGCUGGACAAAAGCAUGUACAUGAGGAUCACCCAUGUCAUGUACAAGCUUUUUGCAAAUCUUAAUA [Mat - hsa-mir-208a - Mod of JL - D34] (puzzle: Sensor for hsa-mir-208a) = top bin
AGGGAGGAAGCUGAGGAUAUCGUAGGGAGGACAUGAGGAUCACCCAUGUGUAUAGAAUUGGAGGACGAGAAGGCAGAGGAGUGGG [JR_SS2_Sub051] (puzzle: Same State 2) = bottom bin

Which class does UCUUGGUUUUUGCUCGUUUUUUGUGUUGAACAUGAGGAUCACCCAUGUAUUGUACGGUCCGGUUUGGUAAUGGUCCG [JMF 10] (puzzle: Sensor for hsa-mir-208a) fall in?
bottom bin

Using the reported apparent KD of MS2 coat protein, which band applies to UCUUGGUUUUUGCUCGUUUUUUGUGUUGAACAUGAGGAUCACCCAUGUAUUGUACGGUCCAAUUUGAUAGUGGUCCG [JMF 28] (puzzle: Sensor for hsa-mir-208a) ?
bottom bin

Please classify: UCAAGCGCACAUGAGGAUCACCCAUGUACCGAGAGUCGUCGUCGGAGAAUGAUGCAUGCUGCUGCUAUUCCACAUUA [Default title] (puzzle: Sensor for hsa-mir-208a version 2)
bottom bin

Hi there! Could you help me figure out the category for UCUAGACAUGAGGAUCACCCAUGUCAAUAUGACACAGGAUAUCGGUACUCAUAGAGUACGCGAGAAGGGUGACUUC [Same State 1 - Mod of Vinnie Gere v.4] (puzzle: Same State 1) please?
bottom bin

Could you tell me which band AUAAAACAUGAGGAUCACCCAUGUCAACAAAGUCGAGGAUAUGGGCAAAUAAAAUAAGAACCAGAAGGUGAAUAAU [salish99_ss1_r3_032] (puzzle: Same State 1) belongs to?
middle bin

Into which bin does this sequence go? GUAGCAUGCAGGCAGGAUAUUCAUAUUAAAACAUGAGGAUCACCCAUGUAGGCCGAAAGGCCUUGGGAGAAGGGCCACAUGCUAC [Xeonanis - 18] (puzzle: Same State 2)
top bin

# bin label for GGUCCAGCCUGAGCUGGACAAAAGCAUGUACAUGAGGAUCACCCAUGUUCAUGUACAAGCUUUUUGCUCGUCUUAAA [salish99_208a_r3_035] (puzzle: Sensor for hsa-mir-208a)
top bin

Kindly state the category for this sequence: UGUUAACAUGAGGAUCACCCAUGUCAAAUGAAUCGAGGAUAUGGAAAGUAAUAAGAUGAACUAGAAGGCGAAGUUG [Altered State 1-18 - Jieux - Same State 1] (puzzle: Same State 1)
bottom bin
